Values from ChEMBL document CHEMBL4732138

MEASURED ON: Tubulin (Homo sapiens) (UniProt P68371+Q9H4B7+P0DPH7+P68366+Q13509+Q71U36+P04350+Q3ZCM7+P07437+P68363+Q9BQE3+Q6PEY2+Q13885+Q9BVA1+Q9BUF5)
ASSAY SUMMARY: Stabilization of microtubules in human QBI293 cells assessed as fold change in alpha tubulin levels at 1 uM after 4 hrs by ELISA relative to DMSO
Assay type: cell-based
Can you tell me fold change (FC) for the items I'm about to list?

Reported fold change (FC) for `Cc1cc(F)c(-c2c(Cl)nc3ncnn3c2N[C@@H](C)C(F)(F)F)c(F)c1` : what is it?
0.99

Consider the compound shown here: `C[C@H](Nc1c(-c2ccc(F)c(F)c2)c(Cl)nc2ncnn12)C(F)(F)F` What is its recorded fold change (FC)?
1.01

Would you kindly share the measured fold change (FC) for `C[C@H](Nc1c(Cc2c(F)cc(F)cc2F)c(Cl)nc2ncnn12)C(F)(F)F` ?
1.01

Any idea what fold change (FC) was measured for `CC(C)[C@@H](C)Nc1c(-c2c(F)cccc2F)c(Cl)nc2ncnn12` ?
1

Form field: reported fold change (FC) of `Fc1cc(F)c(-c2c(Cl)nc3ncnn3c2NCc2ccccc2)c(F)c1`
1

Given `Fc1cc(F)c(-c2c(Cl)nc3ncnn3c2N2CCCCCCC2)c(F)c1` , state its recorded fold change (FC).
1.01

Given the compound CC(C)[C@@H](C)Nc1c(-c2ccc(C#N)cc2F)c(Cl)nc2ncnn12 (stereo in doubt; 67) , what is its reported fold change (FC)?
0.99

Consider the compound shown here: `CO[C@H]1C[C@H]2CC[C@@H](C1)N2c1c(-c2c(F)cc(C#N)cc2F)c(Cl)nc2ncnn12` What is its recorded fold change (FC)?
0.99

Any idea what fold change (FC) was measured for `N#Cc1cc(F)c(-c2c(Cl)nc3ncnn3c2N2CCCCCC2)c(F)c1` ?
0.98

If you can, please state the reported fold change (FC) value of `CC(C)[C@@H](C)Nc1c(-c2ccccc2F)c(Cl)nc2ncnn12` .
1

###

MEASURED ON: Tubulin (Homo sapiens) (UniProt P68371+Q9H4B7+P0DPH7+P68366+Q13509+Q71U36+P04350+Q3ZCM7+P07437+P68363+Q9BQE3+Q6PEY2+Q13885+Q9BVA1+Q9BUF5)
ASSAY SUMMARY: Stabilization of microtubules in human QBI293 cells assessed as fold change in acetylated tubulin levels at 10 uM after 4 hrs by ELISA relative to cevipabulin
Assay type: cell-based
Rule for this label: Yes means fold change (FC) is less than 0.7; No means fold change (FC) is at least 0.7.

Does this molecule meet the criterion fold change (FC) < 0.7? `CC(C)[C@@H](C)Nc1c(-c2c(F)cccc2F)c(Cl)nc2ncnn12`
No

Would you kindly verify if fold change (FC) of CC(Cc1c(-c2c(F)cc(F)cc2F)c(Cl)nc2ncnn12)C(F)(F)F (stereo not drawn) is strictly less than 0.7?
Yes

I wonder whether `CC(C)CNc1c(-c2c(F)cc(F)cc2F)c(Cl)nc2ncnn12` has fold change (FC) below 0.7. Can you tell?
Yes

Determine whether this molecule shows fold change (FC) lower than 0.7 (ties excluded): `N#Cc1ccc(-c2c(Cl)nc3ncnn3c2N2CCCCCC2)c(F)c1`
No

In the record for CC(CF)Nc1c(-c2c(F)cc(F)cc2F)c(Cl)nc2ncnn12 (stereo not drawn) , is fold change (FC) less than 0.7?
Yes

Dear reviewer, please state whether `C[C@H](Nc1c(-c2ccc(C#N)cc2F)c(Cl)nc2ncnn12)C(F)(F)F` has fold change (FC) strictly beneath 0.7.
Yes
